These data points were gathered from paper PMC10786891.

I'd appreciate it if you could supply pKd values for the items below.
# experimental.target: T1, EsCas13d, nuclease-dead (Eubacterium siraeum, UniProt B0MS50, R295A;H300A;R849A;H854A)
# T1 sequence: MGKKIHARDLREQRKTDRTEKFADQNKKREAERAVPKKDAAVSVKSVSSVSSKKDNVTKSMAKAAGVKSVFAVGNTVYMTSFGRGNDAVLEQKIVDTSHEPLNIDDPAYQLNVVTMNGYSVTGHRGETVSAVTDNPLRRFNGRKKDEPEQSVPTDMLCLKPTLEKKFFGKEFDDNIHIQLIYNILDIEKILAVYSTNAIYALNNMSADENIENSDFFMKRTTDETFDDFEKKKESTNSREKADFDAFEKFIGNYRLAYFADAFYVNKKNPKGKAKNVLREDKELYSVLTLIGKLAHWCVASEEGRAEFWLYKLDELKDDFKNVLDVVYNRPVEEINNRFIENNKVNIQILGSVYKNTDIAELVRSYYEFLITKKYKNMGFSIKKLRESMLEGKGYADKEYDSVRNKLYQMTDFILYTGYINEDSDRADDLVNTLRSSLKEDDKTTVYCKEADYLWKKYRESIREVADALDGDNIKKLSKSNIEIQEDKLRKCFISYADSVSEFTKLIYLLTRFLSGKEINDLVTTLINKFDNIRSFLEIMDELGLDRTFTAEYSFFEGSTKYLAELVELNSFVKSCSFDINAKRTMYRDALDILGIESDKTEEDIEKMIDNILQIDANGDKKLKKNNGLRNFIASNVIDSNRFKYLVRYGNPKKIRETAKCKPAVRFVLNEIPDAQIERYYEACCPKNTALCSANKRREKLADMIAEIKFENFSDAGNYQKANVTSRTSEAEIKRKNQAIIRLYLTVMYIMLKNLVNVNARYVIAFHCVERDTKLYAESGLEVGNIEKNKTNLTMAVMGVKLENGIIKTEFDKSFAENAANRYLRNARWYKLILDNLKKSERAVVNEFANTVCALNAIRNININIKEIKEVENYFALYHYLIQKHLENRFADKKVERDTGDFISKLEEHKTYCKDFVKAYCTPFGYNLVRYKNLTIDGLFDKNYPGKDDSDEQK
# assay.text: crRNA (strand 1, pre-loaded); Mg2+; 40 mM Tris-HCl pH 7.5, 150 mM NaCl, 6 mM MgCl2, 1 mM DTT, 0.1% Tween-20, 0.2 mg/ml BSA; 25 C; 10 min per concentration, then washed
# details: tags: His6-TwinStrep-SUMO cleaved; N-terminal SNAP kept (SNAP-Surface 488); label: 3' end held by stalled T7 RNA polymerase
Give bare numbers, as −log10 of the molar value.

binder	pKd
target 1 U8G,C22A (mixed) RNA 1: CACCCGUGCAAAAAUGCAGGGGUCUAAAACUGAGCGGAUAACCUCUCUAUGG RNA 2: GGGAAUGGAUCCACAUCUACGAAUUCGUAACAUAGAGAGGUUAGCCGCUCACCGAGAUCGGAAGAGCACACGU	7.56

Hi team, please reply with pKd for each item in this list.
1. target 1 MT 5'PFS CCA 3'PFS ACU (mixed) RNA 1: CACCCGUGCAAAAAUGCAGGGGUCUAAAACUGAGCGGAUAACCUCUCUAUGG RNA 2: GGGAAUGGAUCCACAUCUACGAAUUCCCACCAUAGAGAGGUUAUCCGCUCAACUAGAUCGGAAGAGCACACGU
2. target 1 insU 3' of 22,insU 3' of 22 (mixed) RNA 1: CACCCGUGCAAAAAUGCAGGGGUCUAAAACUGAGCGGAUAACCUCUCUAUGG RNA 2: GGGAAUGGAUCCACAUCUACGAAUUCGUACUUCAUAGAGAGGUUAUCCGCUCACCGAGAUCGGAAGAGCACACGU
3. target 2 MT 5'PFS AAU 3'PFS AAC (mixed) RNA 1: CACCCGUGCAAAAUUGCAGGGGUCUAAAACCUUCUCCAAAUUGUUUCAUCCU RNA 2: GGGAAUGGAUCCACAUCUACGAAUUCAAUAGGAUGAAACAAUUUGGAGAAGAACAGAUCGGAAGAGCACACGU

A.
1: 7.85; 2: 7.51; 3: 8.28
